Biological target: SIK1 in HEK293T cells (Homo sapiens (Human), UniProt P57059)
Sequence (P57059 whole entry): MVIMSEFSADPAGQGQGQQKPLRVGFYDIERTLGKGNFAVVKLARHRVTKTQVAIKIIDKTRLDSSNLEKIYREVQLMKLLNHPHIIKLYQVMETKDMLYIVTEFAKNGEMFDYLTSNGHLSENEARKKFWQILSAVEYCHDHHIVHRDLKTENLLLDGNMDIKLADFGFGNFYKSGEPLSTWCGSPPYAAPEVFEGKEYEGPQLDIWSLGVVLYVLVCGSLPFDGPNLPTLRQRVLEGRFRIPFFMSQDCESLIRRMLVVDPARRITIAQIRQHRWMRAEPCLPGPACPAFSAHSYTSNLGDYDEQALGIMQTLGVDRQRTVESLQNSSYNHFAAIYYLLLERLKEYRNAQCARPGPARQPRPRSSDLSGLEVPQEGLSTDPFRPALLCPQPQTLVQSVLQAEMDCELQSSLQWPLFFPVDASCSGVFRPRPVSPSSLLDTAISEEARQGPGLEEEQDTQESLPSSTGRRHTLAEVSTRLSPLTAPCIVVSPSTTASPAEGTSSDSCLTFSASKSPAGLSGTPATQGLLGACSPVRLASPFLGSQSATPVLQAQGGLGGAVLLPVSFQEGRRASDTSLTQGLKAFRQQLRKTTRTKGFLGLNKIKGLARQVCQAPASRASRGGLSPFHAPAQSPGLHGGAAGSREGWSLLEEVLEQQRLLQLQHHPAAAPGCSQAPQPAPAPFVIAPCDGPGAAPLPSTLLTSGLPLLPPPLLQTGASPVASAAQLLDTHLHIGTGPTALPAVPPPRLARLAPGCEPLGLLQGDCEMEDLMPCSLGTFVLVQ
Assay: cell-based
Conditions: read-out: IC50 for SIK1 (nanoBRET)
pIC50: −log10 of the molar value.

>  <compound>
CCc1nnc(-c2c(OC)cc(-c3cnc4cc(-c5cnn(C6CC6)c5)ccn34)cc2OC)o1 [Example 55]

>  <subject-of-test>
SIK1 in HEK293T cells (Homo sapiens (Human), UniProt P57059)

>  <pIC50>
5.68

$$$$

###

Biological target: Recombinant SIK2 (Homo sapiens (Human), UniProt Q9H0K1)
Sequence (Q9H0K1 whole entry): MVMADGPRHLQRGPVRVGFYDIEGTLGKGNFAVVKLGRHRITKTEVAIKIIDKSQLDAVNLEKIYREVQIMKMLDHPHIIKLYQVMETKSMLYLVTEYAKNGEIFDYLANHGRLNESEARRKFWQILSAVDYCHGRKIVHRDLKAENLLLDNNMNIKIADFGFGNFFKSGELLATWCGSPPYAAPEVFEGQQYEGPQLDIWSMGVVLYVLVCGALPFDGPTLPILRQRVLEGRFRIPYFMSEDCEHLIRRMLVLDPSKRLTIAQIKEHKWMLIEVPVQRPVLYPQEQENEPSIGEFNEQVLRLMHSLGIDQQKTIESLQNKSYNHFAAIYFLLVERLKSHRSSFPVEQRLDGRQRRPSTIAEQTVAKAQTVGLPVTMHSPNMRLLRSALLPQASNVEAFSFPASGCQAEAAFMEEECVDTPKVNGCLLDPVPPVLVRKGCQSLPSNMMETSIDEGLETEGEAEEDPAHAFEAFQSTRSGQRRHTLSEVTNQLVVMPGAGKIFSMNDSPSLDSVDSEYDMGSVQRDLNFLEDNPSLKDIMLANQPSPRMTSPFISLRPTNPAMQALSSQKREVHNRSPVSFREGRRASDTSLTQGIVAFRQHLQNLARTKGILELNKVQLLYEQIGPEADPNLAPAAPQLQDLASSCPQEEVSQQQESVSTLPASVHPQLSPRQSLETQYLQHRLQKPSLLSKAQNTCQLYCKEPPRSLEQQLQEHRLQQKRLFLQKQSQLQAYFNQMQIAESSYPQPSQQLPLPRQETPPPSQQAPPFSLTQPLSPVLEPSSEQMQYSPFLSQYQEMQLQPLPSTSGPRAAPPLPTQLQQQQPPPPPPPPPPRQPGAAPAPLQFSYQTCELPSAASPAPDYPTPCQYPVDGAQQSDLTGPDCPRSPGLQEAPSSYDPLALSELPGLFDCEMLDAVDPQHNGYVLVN
Test: biochemical
Conditions: recombinant SIK2 2.5 nM, 1 μM ATP; read-out: SIK2 IC50
Response field label: string, one of t (IC50 strictly below 5 nM) or f.

>  <molecule>
N#Cc1ccc(-c2cnc3cc(C(=O)NCc4nc5ccncc5[nH]4)ccn23)cc1

>  <subject-of-test>
Recombinant SIK2 (Homo sapiens (Human), UniProt Q9H0K1)

>  <category>
f

$$$$
>  <molecule>
CCc1nnc(-c2c(F)cc(-c3cnc4cc(-c5cnn(C)c5)ccn34)cc2F)o1

>  <subject-of-test>
Recombinant SIK2 (Homo sapiens (Human), UniProt Q9H0K1)

>  <category>
f

$$$$
>  <molecule>
CC1(COc2ccc3c(c2)ncn3-c2ccc3cccc(N4CC5(CC(N)C5)C4)c3n2)COC1

>  <subject-of-test>
Recombinant SIK2 (Homo sapiens (Human), UniProt Q9H0K1)

>  <category>
f

$$$$
>  <molecule>
N#Cc1ccc(-c2cnc3cc(-c4cnn(C5CC5)c4)ccn23)cc1

>  <subject-of-test>
Recombinant SIK2 (Homo sapiens (Human), UniProt Q9H0K1)

>  <category>
t

$$$$
>  <molecule>
CC1(COc2ccc3c(c2)ncn3-c2ccc3cccc(N4CCCC4CN)c3n2)COC1 (centres unmarked)

>  <subject-of-test>
Recombinant SIK2 (Homo sapiens (Human), UniProt Q9H0K1)

>  <category>
f

$$$$
>  <molecule>
CCc1nnc(-c2c(OC)cc(-c3cnc4cc(OCC5(C)COC5)ccn34)cc2OC)o1

>  <subject-of-test>
Recombinant SIK2 (Homo sapiens (Human), UniProt Q9H0K1)

>  <category>
f

$$$$
>  <molecule>
CC1(COc2ccn3c(-c4ccc5cccc(N6CCC(N)CC6)c5n4)cnc3c2)COC1

>  <subject-of-test>
Recombinant SIK2 (Homo sapiens (Human), UniProt Q9H0K1)

>  <category>
t

$$$$
>  <molecule>
CC1(COc2ccc3c(c2)ncn3-c2ccc3cccc(N4CCC5(CCNC5)C4)c3n2)COC1 (centres unmarked)

>  <subject-of-test>
Recombinant SIK2 (Homo sapiens (Human), UniProt Q9H0K1)

>  <category>
f

$$$$
>  <molecule>
CN1CCC(c2cccc3ccc(-n4cnc5cc(OCC6(C)COC6)ccc54)nc23)C1 (centres unmarked)

>  <subject-of-test>
Recombinant SIK2 (Homo sapiens (Human), UniProt Q9H0K1)

>  <category>
t

$$$$
>  <molecule>
CCc1nnc(-c2c(OC)cc(-c3cnn4cc(-c5cnn(C6CC6)c5)ccc34)cc2OC)o1

>  <subject-of-test>
Recombinant SIK2 (Homo sapiens (Human), UniProt Q9H0K1)

>  <category>
t

$$$$
>  <molecule>
COc1cc(-c2cnc3cc(-c4cnn(C)c4)ccn23)cc(OC)c1-c1nnc(C2CC2)o1

>  <subject-of-test>
Recombinant SIK2 (Homo sapiens (Human), UniProt Q9H0K1)

>  <category>
t

$$$$
>  <molecule>
N#Cc1ccc(-c2cnc3cc(C(=O)NCc4ccco4)ccn23)cc1

>  <subject-of-test>
Recombinant SIK2 (Homo sapiens (Human), UniProt Q9H0K1)

>  <category>
f

$$$$
>  <molecule>
CCn1cc(-c2ccn3c(-c4ccc(C#N)c(C)c4)cnc3c2)cn1

>  <subject-of-test>
Recombinant SIK2 (Homo sapiens (Human), UniProt Q9H0K1)

>  <category>
t

$$$$
>  <molecule>
N#Cc1ccc(-c2cnc3cc(C(=O)N4CCn5c(nc6ccccc65)C4)ccn23)cc1

>  <subject-of-test>
Recombinant SIK2 (Homo sapiens (Human), UniProt Q9H0K1)

>  <category>
f

$$$$
>  <molecule>
CCn1cc(-c2c(OC)cc(-c3cnn4cc(-c5cnn(C6CC6)c5)ccc34)cc2OC)nn1

>  <subject-of-test>
Recombinant SIK2 (Homo sapiens (Human), UniProt Q9H0K1)

>  <category>
f

$$$$
>  <molecule>
N#Cc1ccc(-c2cnc3cc(C(=O)NCc4nc5ccccc5o4)ccn23)cc1

>  <subject-of-test>
Recombinant SIK2 (Homo sapiens (Human), UniProt Q9H0K1)

>  <category>
f

$$$$
